molecular target: Aldo-keto reductase family 1 member B1 (Rattus norvegicus, UniProt P07943); assay: biochemical; type: tissue-based, Lens of camera-type eye; note: in other assays of this panel Not Active means under 50% inhibition at 10 µM;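 note: inhibition of aldose reductase enzyme activity, measured with DL-glyceraldehyde as the substrate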
Property name: IC50

Would you please look over these solved cases?
1) CC[C@@]1(O)C(=O)OCc2c1cc1n(c2=O)Cc2cc3c(CN(C)C)c(O)ccc3nc2-1 :: Not Active
2) OC[C@H]1O[C@@H]2O[C@H]3[C@H](O)[C@@H](O)[C@@H](O[C@H]4[C@H](O)[C@@H](O)[C@@H](O[C@H]5[C@H](O)[C@@H](O)[C@@H](O[C@H]6[C@H](O)[C@@H](O)[C@@H](O[C@H]7[C@H](O)[C@@H](O)[C@@H](O[C@H]1[C@H](O)[C@H]2O)O[C@@H]7CO)O[C@@H]6CO)O[C@@H]5CO)O[C@@H]4CO)O[C@@H]3CO :: Not Active
3) Nc1nc(F)nc2c1ncn2[C@@H]1O[C@H](CO)[C@@H](O)[C@@H]1O :: Not Active
4) CC(C)NCC(O)COc1ccc(CC(N)=O)cc1 (configuration not stated) :: Not Active
5) C1CCN2C[C@@H]3C[C@@H](CN4CCCC[C@@H]34)[C@H]2C1 :: Not Active
6) O=C(O)CCc1nc(-c2ccccc2)c(-c2ccccc2)o1 :: Not Active
7) C=CCO :: Not Active
8) CN1C(=O)OC(C)(C)C1=O :: Not Active
9) C[N+]1(C)[C@@H]2C[C@@H](OC(=O)[C@H](CO)c3ccccc3)C[C@H]1[C@@H]1O[C@@H]12.[Br-] [METHSCOPOLAMINE BROMIDE] :: Not Active
10) CC(O)C(=O)O (configuration not stated) :: Not Active

Return IC50 (reported value) for this compound: `Oc1ccccc1`
Not Active

Return IC50 (reported value) for this compound: O=C(Nc1ccc(Cl)c(Cl)c1)c1cc(Cl)cc(Cl)c1O [3,3',4',5-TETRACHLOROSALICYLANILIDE]
Not Active

Return IC50 (reported value) for this compound: O=C1CC[C@@]2(O)[C@H]3Cc4ccc(O)c5c4[C@@]2(CCN3CC2CC2)[C@H]1O5 [NALTREXONE]
Not Active

Return IC50 (reported value) for this compound: `CC(Cl)(Cl)Cl`
Not Active

Return IC50 (reported value) for this compound: `C[N+](C)(C)CCOP(=O)([O-])OC[C@H](O)CO`
Not Active

Return IC50 (reported value) for this compound: `CN(Cc1cc(Br)cc(Br)c1N)C1CCCCC1`
Not Active

Return IC50 (reported value) for this compound: `CC[C@H](C)[C@@H](CO[C@@H](Cc1ccccc1)C(=O)N[C@@H](CCS(C)(=O)=O)C(=O)OC(C)C)NC[C@@H](N)CS`
Not Active

###

Biological target: Cytochrome P450 2A6 (Homo sapiens, UniProt P11509); note: in other assays of this panel Not Active means under 50% inhibition at 10 µM
Sequence (P11509 whole entry): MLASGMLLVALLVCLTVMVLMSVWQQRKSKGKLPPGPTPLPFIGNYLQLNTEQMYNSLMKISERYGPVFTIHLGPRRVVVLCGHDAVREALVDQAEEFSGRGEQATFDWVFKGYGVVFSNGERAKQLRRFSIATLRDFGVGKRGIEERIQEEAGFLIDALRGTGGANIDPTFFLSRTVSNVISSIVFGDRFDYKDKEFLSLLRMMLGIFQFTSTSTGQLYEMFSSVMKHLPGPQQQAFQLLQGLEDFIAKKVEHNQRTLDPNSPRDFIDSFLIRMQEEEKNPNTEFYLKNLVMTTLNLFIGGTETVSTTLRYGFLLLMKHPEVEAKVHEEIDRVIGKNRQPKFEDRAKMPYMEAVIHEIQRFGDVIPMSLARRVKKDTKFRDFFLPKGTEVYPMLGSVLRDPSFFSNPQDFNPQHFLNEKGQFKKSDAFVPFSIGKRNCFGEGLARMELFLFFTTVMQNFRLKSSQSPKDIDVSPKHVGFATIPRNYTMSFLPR
Details: bti-tn-5b1-4
Property name: Ki

1. CN(CCOc1ccc(C[C@H](Nc2ccccc2C(=O)c2ccccc2)C(=O)O)cc1)c1ccccn1 :: Not Active
2. CC(C)Cn1cnc2c(N)nc3ccccc3c21 :: Not Active
3. Nc1ccc(C(=O)O)c(O)c1 :: Not Active
4. CCN1CCCC1CNC(=O)c1cc(S(N)(=O)=O)ccc1OC (centres undefined) [SULPIRIDE] :: Not Active
5. CC(=O)[C@]1(O)Cc2c(O)c3c(c(O)c2[C@@H](O[C@H]2C[C@H](N)[C@H](O)[C@H](C)O2)C1)C(=O)c1ccccc1C3=O :: Not Active
6. C=CCN1CC[C@]23c4c5ccc(O)c4O[C@H]2/C(=N/N=C2\CC[C@@]4(O)[C@H]6Cc7ccc(O)c8c7[C@@]4(CCN6CC=C)[C@H]2O8)CC[C@@]3(O)[C@H]1C5 :: Not Active
7. Nc1nc(N)c2nc(CNc3ccc(C(=O)N[C@@H](CCC(=O)O)C(=O)O)cc3)cnc2n1 :: Not Active
8. Cc1nnc(NS(=O)(=O)c2ccc(N)cc2)s1 :: Not Active

Turning now to a further record.
Return Ki (reported value) for this compound: `Cc1[nH]c(=O)c(C#N)cc1-c1ccncc1`
Not Active

###

test: DRUGMATRIX: Purinergic P2X radioligand binding (ligand: [3H] alpha, beta-Methylene-ATP); format: cell membranes, Oryctolagus cuniculus, New Zealand albino, Urinary bladder, Membrane; details: Not Active = under 50% inhibition at 10 µM
Property name: Ki

1) O=C(Nc1ccc(Cl)c(Cl)c1)c1cc(Cl)cc(Cl)c1O [3,3',4',5-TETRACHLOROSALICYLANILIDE] :: Not Active
2) CC[C@H](C)C(=O)O[C@H]1CCC=C2C=C[C@H](C)[C@H](CC[C@@H]3C[C@@H](O)CC(=O)O3)[C@H]21 :: Not Active
3) Cc1nnc(NS(=O)(=O)c2ccc(N)cc2)s1 :: Not Active
4) O=C(c1ccccc1)c1ccc2n1CCC2C(=O)O (configuration not stated) :: Not Active

Return Ki (reported value) for this compound: CC(O)C(=O)O (configuration not stated)
Not Active

Return Ki (reported value) for this compound: `CC(C)(C#N)c1cc(Cn2cncn2)cc(C(C)(C)C#N)c1`
Not Active

Return Ki (reported value) for this compound: `O=C(O)COC(=O)Cc1ccccc1Nc1c(Cl)cccc1Cl`
Not Active

###

Target: Leukotriene C4 synthase (Cavia porcellus, UniProt A6XA80);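 note: enzyme inhibition assay of leukotriene C4 synthase, using LTA4 as the substrate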; note: in other assays of this panel Not Active means under 50% inhibition at 10 µM
Sequence (A6XA80 whole entry): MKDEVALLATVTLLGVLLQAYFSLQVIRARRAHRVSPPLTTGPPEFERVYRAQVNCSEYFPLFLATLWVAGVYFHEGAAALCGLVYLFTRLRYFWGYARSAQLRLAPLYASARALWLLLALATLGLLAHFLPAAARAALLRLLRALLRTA
Assay: biochemical
Format: tissue-based, Lung
Property name: IC50

1. Cc1cn([C@H]2C=C[C@@H](CO)O2)c(=O)[nH]c1=O :: Not Active
2. Nc1ccc(C(=O)O)c(O)c1 :: Not Active
3. COc1cc([C@@H]2c3cc4c(cc3[C@H](O)[C@H]3COC(=O)[C@H]23)OCO4)cc(OC)c1OC :: Not Active
4. CCC(C)(C)C(=O)O[C@H]1C[C@@H](C)C=C2C=C[C@H](C)[C@H](CC[C@@H]3C[C@@H](O)CC(=O)O3)[C@H]21 :: Not Active

###

target: D(3) dopamine receptor (Homo sapiens, UniProt P35462); experiment: DRUGMATRIX: Dopamine D3 radioligand binding (ligand: [3H] Spiperone); format: cell membranes, CHO, Membrane; settings: cho
Sequence (P35462 whole entry): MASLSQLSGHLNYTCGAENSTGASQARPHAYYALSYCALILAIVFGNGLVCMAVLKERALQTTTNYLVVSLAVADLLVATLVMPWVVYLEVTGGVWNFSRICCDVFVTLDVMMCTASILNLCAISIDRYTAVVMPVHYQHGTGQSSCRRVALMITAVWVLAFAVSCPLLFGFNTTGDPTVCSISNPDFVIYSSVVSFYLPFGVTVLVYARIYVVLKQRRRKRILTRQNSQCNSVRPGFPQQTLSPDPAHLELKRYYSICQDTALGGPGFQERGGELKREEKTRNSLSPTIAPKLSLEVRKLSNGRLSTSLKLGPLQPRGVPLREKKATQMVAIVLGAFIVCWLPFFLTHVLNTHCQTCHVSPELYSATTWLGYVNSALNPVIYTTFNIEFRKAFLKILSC
Property name: Ki

1. CHROMIC CHLORIDE :: Not Active
2. LEAD(IV) ACETATE :: Not Active
3. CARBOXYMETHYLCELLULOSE :: Not Active
4. POVIDONE :: Not Active

Turning now to a further record.
Return Ki (reported value) for this substance: COPPER(II) OXIDE
Not Active

###

molecular target: D(1A) dopamine receptor (Homo sapiens); test: DRUGMATRIX: Dopamine D1 radioligand binding (ligand: [3H] SCH-23390); assay type: cell membranes, CHO, Membrane; conditions: cho; Not Active = under 50% inhibition at 10 µM
Sequence (P21728 whole entry): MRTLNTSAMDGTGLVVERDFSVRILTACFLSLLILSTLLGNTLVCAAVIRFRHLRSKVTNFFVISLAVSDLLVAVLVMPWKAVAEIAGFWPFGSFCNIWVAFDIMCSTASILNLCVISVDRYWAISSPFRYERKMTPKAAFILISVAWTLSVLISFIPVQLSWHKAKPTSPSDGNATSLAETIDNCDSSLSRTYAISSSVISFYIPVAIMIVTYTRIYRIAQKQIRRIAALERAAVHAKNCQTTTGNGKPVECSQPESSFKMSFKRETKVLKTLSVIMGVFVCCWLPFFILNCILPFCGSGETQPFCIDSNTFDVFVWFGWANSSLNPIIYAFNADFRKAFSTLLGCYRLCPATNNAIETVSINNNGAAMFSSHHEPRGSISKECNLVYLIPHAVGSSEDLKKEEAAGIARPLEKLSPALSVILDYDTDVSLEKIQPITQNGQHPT
Property name: IC50

1) NCC(CC(=O)O)c1ccc(Cl)cc1 (centres undefined) :: Not Active
2) CC12CCC(CC1=O)C2(C)C (centres undefined) :: Not Active
3) OC[C@H]1OC2C3[C@@H](CO)OC(O[C@H]4[C@H](O)[C@@H](O)[C@@H](O[C@H]5[C@H](O)[C@@H](O)[C@@H](O[C@H]6[C@H](O)[C@@H](O)[C@@H](O[C@H]7[C@H](O)[C@@H](O)[C@@H](O[C@H]8[C@H](O)[C@@H](O)[C@@H](O[C@H]9[C@H](O)[C@@H](O)C(OC1[C@H](O)[C@H]2O)O[C@@H]9CO)O[C@@H]8CO)O[C@@H]7CO)O[C@@H]6CO)O[C@@H]5CO)O[C@@H]4CO)[C@H](O)[C@H]3O :: Not Active
4) CCO :: Not Active
